Where do the numbers come from? From patent US20230017045A1.

Tested on: test plant species
Assay: Post-emergent herbicidal activity test (greenhouse, foliar spray, visual growth reduction)
Format: in vivo
Conditions: post-emergence, 336 h, canada thistle (Cirsium arvense), 14 Days After Application, 140 g ai/ha, read-out: Visual Growth Reduction (%) CIRAR
PARAMETER: pest or weed control at 140 g/ha

1. COC(=O)c1nc(-c2ccc3c(c2OC)OC(F)(F)O3)ccc1Cl: 85 to 94%
2. COC(=O)c1nc(-c2ccc(C(F)F)cc2)ncc1Cl: 0 to 29%
3. COC(=O)c1nc(-c2cc3nonc3cc2F)c(F)cc1Cl: 0 to 29%
4. COc1cc(C(F)(F)F)ccc1-c1ncc(Cl)c(C(=O)O)n1: 30 to 44%
5. C=Cc1cc(C(F)(F)F)cc(Cl)c1-c1ccc(Cl)c(C(=O)OC)n1: 60 to 74%

Now, please, on to the next compound.
Per the records, this compound ( COC(=O)c1nc(-c2cc(F)c(C(F)(F)F)cc2OC)c(F)cc1Cl ) has pest or weed control at 140 g/ha equal to 75 to 84%
